target_or_test_system: human alpha-synuclein monomer (human, UniProt P37840 1-140)
protocol_notes: direct ELISA on coated antigen;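 also: plates coated with recombinant human, mouse or rat alpha-synuclein, purified antibody titrated 10 µg/mL down to 0.6 ng/mL for 1 h, bound antibody detected by anti-rat HRP with TMB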
Returns one of Yes or No; Yes when Bmax (O.D. at 450 nm) is >= 1 OD.

Identify whether the reported Bmax (O.D. at 450 nm) of the following binder is 1 OD or greater: 1H5 (antibody, rat IgG2b, V domains shown, also called clone 1H5) VH: AVQLVESGGGLVQPKESLKISCAASGFTFSDAAMYWVRQAPGKGLELVARIRTKPNNYATYYADSVKGRFTISRDDSKSMVYLQMGNLKTEDTAMYYCSADFHYFDYWGQGVMVTVSS VL: DIQMTQSPSVLSASVGDRVTLSCKAGQNINKNLDWYQQKLGEAPKLLISFTNNLQTGVPSRFSGSGSGSDYTLTISSLQPEDVATYYCYQYNSGWTFGGGTKLELK
Yes

Identify whether the reported Bmax (O.D. at 450 nm) of the following binder is 1 OD or greater: 22E11 (antibody, IgG1, V domains shown, also called clone 22E11) VH: AVQLVESGGGLVQPKESLKISCAASGFTFSTAAMYWVRQAPGKGLEWVTRIRTKPNNYATYYADSVKGRFTISRDDSKSMVYLQMDNLKTEDTAMYYCTADYYDGTPFAYWGQGTLVTVSS VL: AVVMTQTPVSLSVSLGGQVSISCRSSQSLVHNNGITYLSWYLQKPGQSPQLPIYKVSNRFSGFSDRFSGGGSGTDFTLKISRVEPDDLGLYYCGQGTQYPYTFGAGTKLELK
Yes

Identify whether the reported Bmax (O.D. at 450 nm) of the following binder is 1 OD or greater: 20H4 (antibody, rat IgG2b, V domains shown, also called clone 20H4; rat 20H4) VH: AVQLVESGGGLVQPKESLKISCAASGFTFSNAAMYWVRQAPGKGLELLARIRTKPNNYATYHADSVKGRFTISRDDSQSMVYLHMGNLKTEDTAMYYCTADMATGDYWGPGVMVTVSS VL: DIQMTQSPPVLSVSVGDRVTLSCKASQNINKNLDWYQQKHGEAPKPLIYSTNNLQTGVPSRFSGSGSGTDYTLTISSLQPEDVATYYCYQYKSAWTFGGGTKLELR
No

Identify whether the reported Bmax (O.D. at 450 nm) of the following binder is 1 OD or greater: 18B4 (antibody, IgG2b, V domains shown, also called clone 18B4) VH: EVQLVESGGGLVQPGRSLKLSCAASGFTFSSFAMAWVRQAPKKGLEWVATITSGGSKTYYPDSVKGRFTISRDNAKSTLYLQMDSLRSEDTATYYCAKGYFDYWGQGVMVTVSS VL: DVVLTQTPPTLSATIGQSVSISCRSSQSLLHSNGNTYLHWLLQRPGQSPQLLIYLVSRLESGVPNRFSGSGSGTDFTLKISGVEAEDLGVYYCVQGTHAPLTFGSGTKLEIK
Yes

Identify whether the reported Bmax (O.D. at 450 nm) of the following binder is 1 OD or greater: 22D11 (antibody, rat IgG1, V domains shown, also called clone 22D11) VH: AVQFVESGGGLVRPKESLKISCTASGFTFTNAAIYWVRQAPGKGLECIARIRTKPNNYATYYADSVRGRFTISRDDSKPMVYLQMNELKTEDTAMYYCAADASRGDYWGQGVMVTVSS VL: DIQMTQSPSVLSASVGDRVTFSCKASQNINKNLDWYQQKLGEVPKVLIYFTNNLQTGIPSRFSGSGSGTDYTLTISSLQPEDVATYYCYQYTSGFTFGAGTKLELK
Yes
